pIC50: −log10 of the molar value.
Assay system TbDHFR (T. brucei dihydrofolate reductase) (Trypanosoma brucei); read-out recorded as pIC50.

Examples from the recorded data:
Nc1nc2cccc(-c3ccccc3)c2n1Cc1ccc(Cl)c(Cl)c1 [compound 32] | < 4.30
Nc1nc2c(-c3ccccc3)cccc2n1Cc1ccc(Cl)c(Cl)c1 [compound 27] | < 4.52
Cc1cc2nc(N)n(Cc3ccc(Cl)c(Cl)c3)c2cc1C [compound 34] | < 4.52
Nc1nc2cccc(OCc3ccccc3)c2n1Cc1ccc(Cl)c(Cl)c1 [compound 31] | < 4.30
Nc1nc2cccc(Cl)c2n1Cc1ccc(Cl)c(Cl)c1 [compound 29] | < 4.52

// query Lab note: need pIC50 for Nc1nc2ccccc2n1Cc1ccc(Cl)c(Cl)c1 [compound 11] on TbDHFR (T. brucei dihydrofolate reductase) (Trypanosoma brucei), anyone have it?
// result < 4.30

###

- assaySystem: TbPTR1 (T. brucei pteridine reductase 1) (Trypanosoma brucei)
- Sequence (O76290 1-268): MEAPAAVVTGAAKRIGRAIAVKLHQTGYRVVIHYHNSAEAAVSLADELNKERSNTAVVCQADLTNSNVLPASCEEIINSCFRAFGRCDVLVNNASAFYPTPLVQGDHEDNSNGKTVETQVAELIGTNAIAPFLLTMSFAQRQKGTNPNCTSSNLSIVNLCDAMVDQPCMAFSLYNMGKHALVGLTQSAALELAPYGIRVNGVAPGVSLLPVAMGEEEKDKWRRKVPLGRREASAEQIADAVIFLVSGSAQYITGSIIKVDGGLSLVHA
parameterMeasured: pIC50
// field semantics: pIC50 = negative decimal log of concentration (mol/L)

// query What is its pIC50 for TbPTR1 (T. brucei pteridine reductase 1) (Trypanosoma brucei)? Entry: Nc1nc2cccc(-c3ccccc3)c2n1Cc1ccc(Cl)c(Cl)c1
// result 9.00

###

Collected pIC50 values appear next to each entry.
- assaySystem: TbDHFR (T. brucei dihydrofolate reductase) (Trypanosoma brucei, UniProt Q27783)
- Sequence (Q27783 whole entry): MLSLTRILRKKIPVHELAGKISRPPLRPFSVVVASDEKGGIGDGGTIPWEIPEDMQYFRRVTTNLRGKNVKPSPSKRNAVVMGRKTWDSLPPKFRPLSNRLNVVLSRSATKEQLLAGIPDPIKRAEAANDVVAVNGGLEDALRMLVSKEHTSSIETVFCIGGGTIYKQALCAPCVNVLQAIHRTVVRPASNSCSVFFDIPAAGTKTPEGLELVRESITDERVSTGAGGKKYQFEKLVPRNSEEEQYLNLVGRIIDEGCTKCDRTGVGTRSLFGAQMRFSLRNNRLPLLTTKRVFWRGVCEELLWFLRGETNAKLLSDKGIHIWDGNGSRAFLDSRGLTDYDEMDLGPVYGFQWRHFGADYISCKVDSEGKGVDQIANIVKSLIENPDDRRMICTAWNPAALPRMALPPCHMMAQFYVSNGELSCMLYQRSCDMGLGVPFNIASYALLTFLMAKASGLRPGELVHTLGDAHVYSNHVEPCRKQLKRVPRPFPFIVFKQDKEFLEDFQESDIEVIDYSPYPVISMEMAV
- experimentNotes: DHFR inhibition assay
- Type: biochemical
pIC50: −log10 of the molar value.

A selection of reference data follows.
CCCOc1cccc2c1nc(N)n2Cc1ccc(Cl)c(Cl)c1 | < 4.52
CCCOc1cccc2nc(N)n(Cc3ccc(Cl)c(Cl)c3)c12 | < 4.52
COc1cccc2nc(N)n(Cc3ccc(Cl)c(Cl)c3)c12 | < 4.52

// query Data request, read-out pIC50, for Nc1nc2c(Cl)cccc2n1Cc1ccc(Cl)c(Cl)c1
// result < 4.52

// query What does the record list as pIC50 for Nc1nc2c(OCc3ccccc3)cccc2n1Cc1ccc(Cl)c(Cl)c1 ?
// result < 4.30

###

- assaySystem: HsDHFR (human DHFR) (Homo sapiens, UniProt P00374)
- Sequence (P00374 whole entry): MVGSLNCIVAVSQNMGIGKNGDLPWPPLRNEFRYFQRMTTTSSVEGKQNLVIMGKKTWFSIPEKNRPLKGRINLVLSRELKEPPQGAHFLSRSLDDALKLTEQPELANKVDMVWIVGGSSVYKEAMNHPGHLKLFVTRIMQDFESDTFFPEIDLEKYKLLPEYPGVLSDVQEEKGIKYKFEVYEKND
pIC50: −log10 of the molar value.
pIC50 values for the compounds below.

Reference set (4 entries):
Nc1nc2c(Cl)cccc2n1Cc1ccc(Cl)c(Cl)c1 | < 4.30
Nc1nc2cccc(Cl)c2n1Cc1ccc(Cl)c(Cl)c1 | < 4.30
COc1cccc2nc(N)n(Cc3ccc(Cl)c(Cl)c3)c12 | < 4.30
Nc1nc2cccc(OCc3ccccc3)c2n1Cc1ccc(Cl)c(Cl)c1 | < 4.30

// query Under HsDHFR (human DHFR) (Homo sapiens, UniProt P00374): pIC50 value of Nc1nc2c(-c3ccccc3)cccc2n1Cc1ccc(Cl)c(Cl)c1 ?
// result < 4.52

// query Query for HsDHFR (human DHFR) (Homo sapiens, UniProt P00374): what pIC50 does the record show for Cc1cc2nc(N)n(Cc3ccc(Cl)c(Cl)c3)c2cc1C ?
// result < 4.52
